B1: TPR t1 (parent)
chain: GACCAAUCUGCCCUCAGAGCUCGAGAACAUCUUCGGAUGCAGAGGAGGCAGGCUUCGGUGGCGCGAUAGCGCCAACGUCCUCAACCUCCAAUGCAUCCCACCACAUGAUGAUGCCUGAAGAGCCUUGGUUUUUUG

Variants of: B1
Test: polymerase ribozyme fitness, log enrichment relative to wild type (log ratio); higher = more active; in vitro selection for triplet polymerase activity
Outcome: Met for polymerase ribozyme fitness (log ratio) of at least -3; Not met for anything lower.

sequence-code | assigned-class
GACCAAUCUGCCCACAGAGCUCGAGAACAUCUUCGGAUGCAGAGGAGGCAGGCAUUGGUGGCGCGAUAGCGCCAACGUCCUCAACCUCCAAUGCAUCCCACCACAUGAUGAUGCCUGAAGAGCCUUGGUGUUUUG | Not met
GACCAAUCUGCCAUCAGAGCUCGAGAACGUCUUCGGAUGCAGAGGAGGCAGGUUUCGGUGGCGCGAUAGCGCCAACGUCCUCAACCUCCAAUGCAUCCCACCACACGAUGAUGCCUGAAGAGCCUUGGUUUUUUG | Not met
GACCAAUCUGCCCUCAGAGCUCGAGAACAUCCUCGGAUGCAGAGGAGGCAGGCUUCGGUGGCGCGAUAGCGCCAACGUCCUCAACCUCCAAUGCAUCCCACCACAUGAUGAUGCCUGAACAGCCUUGGUUUUUUG | Met
GACCAAUCUGACCUCAGAGCUCGAGAACUUCUUCGAAUGCAGAGGAGGCAGGCUUCGGUGGCGCGAUAGCGCCAACGUCCUCAACCUCCAAUGCAUCCCACCACAUGAUGAUGCCUGAAGAGCUUUGGUUUUUUG | Not met
GACCAAUCUGCCUUCAGAGCUCGAGAACCUCUUCGGAUGCAGAGGAGGCAGGCUUUGGUGGCGCGAUAGCGCCAACGUCCUCAACCUCCAAUGCAUCCCACCACAUGAUGAUGCCUGAAGAGCCUUGGUUUUUUG | Met
GACCAAUCUGCCCUCAGAGCUCGAGAACAUCUUCGGAUGCAGAGGAGUCAGGCUUCGGUGGCGCGAUAGCGCCAACGUCCUCAACCUCCAAUGCAUCCUACCACAUGAUGAUGCCUGAAGAGCCUUGGUUUUUUG | Not met
GACCAAUCUGCCCUCAGAGCUCGAGAACAUCUUCGGAUGCAGAGGAGGCAGGCUUGGGUGGCGUGAUAGCGCCAACGUCCUCAACCUCCAAUGCAUCCCACCACAUGAUGAUGCCUGAAGAGUCUUGGUUUUUUG | Met
GACCAAUCUGCCCUCAGAGCUCGAGAACAUCUUCGGCUGCAGAGGAGGCAGGCUUCGGUGGCGCGAUAGCGCCAACGUCCUCAAACUCCAAUGCAUCCCACCACAUGAUGAUCCCUGAAGAGCCUUGGUUUUUUG | Not met
GACCAAUCUGGCCUCAGAGCUCGAGAACAUCUUCGGCUGCCGAGGAGGCAGGCUUCGGUGGCGCGAUAGCGCCAACGUCCUCAACCUCCAAUGCAUCCCAACACAUGAUGAUGCCUGAAGCUCCUUGGUUUUUUG | Met
GACCAAUCUGACCUCAGAGCUCGAGAACAUCUUCGGAUGCAGAGGAGGCAGGCUUCGGUGGCGCGAUAGGGCCAACGUCCUCAACCUCCAAUGCAUCCCACCACAUGAUGAUGCCUGAAGAGCCUUGGUUUUUUG | Not met
GACCAAUCUGCCAUCAGAGCUCGAGAACAUCUUCGGAUGCAGAGGAGGCAGGCUUCGGUGUCGCGAUAGCGCCAACGUCCUCAACCUCCAUUGCAUCCCACCACAUGAUGAUGCCUGAAGAGCCUUGGUUUUUUG | Met
GACCAAUCUGCCCUCAGAGCUCGAGAACAUAUUCGGAUGCAGAGGAGGCAGGCUUCGGUGGCGCGAUAGCGCCAACGUCCUCAACCUCCAAUGCUUCCCACCACAUGAUGAUGCCUGAAGAGCCUUGGUUUUUUG | Not met
